# targetOrTestSystem: T1, myc-tagged human EphB4 on transfected CHO cells (human, UniProt P54760 16-987)
# T1 construct: whole, on cells; also called CHO-EphB4; CHO-hEphB4; not shown: myc tag
# T1 sequence (looked up): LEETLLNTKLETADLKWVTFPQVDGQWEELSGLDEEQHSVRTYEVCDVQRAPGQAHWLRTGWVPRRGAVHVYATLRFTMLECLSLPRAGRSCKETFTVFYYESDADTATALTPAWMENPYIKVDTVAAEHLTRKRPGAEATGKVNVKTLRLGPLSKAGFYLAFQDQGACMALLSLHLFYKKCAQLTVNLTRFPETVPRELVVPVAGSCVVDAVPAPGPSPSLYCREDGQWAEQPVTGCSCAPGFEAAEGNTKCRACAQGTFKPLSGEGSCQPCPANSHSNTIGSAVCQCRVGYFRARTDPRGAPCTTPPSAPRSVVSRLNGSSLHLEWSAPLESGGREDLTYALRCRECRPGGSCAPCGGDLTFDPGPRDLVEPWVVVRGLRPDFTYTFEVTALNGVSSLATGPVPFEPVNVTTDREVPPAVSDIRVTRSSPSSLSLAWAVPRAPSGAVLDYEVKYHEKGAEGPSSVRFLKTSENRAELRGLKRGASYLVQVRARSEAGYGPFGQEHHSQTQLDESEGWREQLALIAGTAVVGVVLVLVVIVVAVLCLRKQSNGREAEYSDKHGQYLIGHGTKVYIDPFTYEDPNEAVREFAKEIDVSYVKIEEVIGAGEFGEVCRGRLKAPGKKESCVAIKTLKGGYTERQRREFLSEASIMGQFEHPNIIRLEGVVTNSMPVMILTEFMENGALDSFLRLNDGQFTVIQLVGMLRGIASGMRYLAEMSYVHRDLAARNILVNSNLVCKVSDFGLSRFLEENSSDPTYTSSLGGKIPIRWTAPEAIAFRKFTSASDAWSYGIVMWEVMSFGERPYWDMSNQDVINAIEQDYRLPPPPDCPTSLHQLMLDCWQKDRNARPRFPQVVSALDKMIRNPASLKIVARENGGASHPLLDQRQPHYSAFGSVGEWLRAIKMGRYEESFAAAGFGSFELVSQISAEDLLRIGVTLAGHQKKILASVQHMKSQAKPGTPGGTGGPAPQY
# testDescription: FACS titration of IgG4-Pro on CHO-EphB4 cells
# Procedure: For the determination of EC50 values, the 12 final IgGs were analyzed on CHO-EphB4 cells in FACS. The EC50 values of the IgGs, determined in two independent experiments, are given in Table 11 and are compared to the EC50 values of the corresponding Fab. […] Again, as already seen for the Fab, the EC50 values of the MOR07310 pool were slightly better than those of the MOR03641 pool.
metricName: EC50 (nM)
State just the number; it will be interpreted in nM.

Query: EC50; subject: MOR07729 IgG4-Pro (antibody, V domains shown, Fab MOR07729 converted into human IgG4-Pro format) VH: QVELVQSGAEVKKPGSSVKVSCKASGGTFSTYAISWVRQAPGQGLEWMGRIIPIFGTANYAQKFQGRVTITADESTSTAYMELSSLRSEDTAVYYCARSSYTILTTYYNYNAMDNWGQGTLVTVSS VL: DIQMTQSPSSLSASVGDRVTITCRASQNINNFLNWYQQKPGKAPKLLIYGSSILQSGVPSRFSGSGSGTDFTLTISSLQPEDFATYYCQQYDFYLSGTFGQGTKVEIKR 4.83
